Ref: paper PMC7327165

Molecular target: full-length monomeric gp120 (clade B, BaL strain) (HIV-1 clade B, strain BaL, UniProt Q2MKA8, strain)
Test: flow cytometry on cells
Settings: one partner purified

binder | binding result
CH54 mAb (antibody, V domains shown) VH: QVQLVQSGPEVKKPGTSMKISCKASGFTFTRSTMQWVRQARGQRLEWIGWIVVGSGNTNYAQKFQERVTITRDMSTSTAYMELSSLRSEDTAVYYCAAAPVGPTSSDYWGQGTLVTVSS VL: DIQMTQSPSSLSASVGDRVTITCRASQSIINYLNWYQQKPGRAPKLLIYAASSLLSGVPSRFSGSGSGTDFTLTISSLQPEDFATYYCQQSYSTPYTFGQGTKLEIK | binds
